Measured Percent Effect values are reported for all entries that follow.
Molecular target: Proteasome subunit beta (Trypanosoma cruzi) (UniProt O96673)
Sequence (whole entry): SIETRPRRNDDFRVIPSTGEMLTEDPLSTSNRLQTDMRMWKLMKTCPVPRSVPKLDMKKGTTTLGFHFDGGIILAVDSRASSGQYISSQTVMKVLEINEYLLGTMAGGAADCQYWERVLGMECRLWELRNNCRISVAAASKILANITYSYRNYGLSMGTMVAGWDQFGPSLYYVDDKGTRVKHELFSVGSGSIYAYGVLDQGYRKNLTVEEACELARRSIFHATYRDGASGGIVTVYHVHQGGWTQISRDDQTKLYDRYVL
Assay: Trypanosoma cruzi proteasome chymotrypsin-like activity (TcProtChymo) assay.
Assay type: functional
Set-up: scale not given: in the data most compounds retested in dose-response had high values
Conditions: 9.37 µM
Response body: numeric value in %, unit text excluded.

// lookup Percent Effect | system=Proteasome subunit beta (Trypanosoma cruzi) (UniProt O96673) | key= Cc1csc(Nc2nccnc2C2CCCN2C(=O)C(C)C)n1 (configuration not stated)
9.69

Identify the measured Percent Effect of CC(C)c1n[nH]c(C2CN(C(=O)CCCn3cccn3)CCO2)n1 (configuration not stated) for Proteasome subunit beta (Trypanosoma cruzi) (UniProt O96673).
11.6

Field: Percent Effect (Proteasome subunit beta (Trypanosoma cruzi) (UniProt O96673)). Entry: COCCN1C[C@H]2[C@@H](C1)N(Cc1ccc(C)o1)CC[C@H]2OC
14.3

Identify the measured Percent Effect of Cc1nn(C)c(C)c1C1CCCN1Cc1cccc(C(N)=O)c1 (configuration not stated) for Proteasome subunit beta (Trypanosoma cruzi) (UniProt O96673).
9.26

Please provide the recorded Percent Effect for CC(=O)N1CC(=O)N(c2ccccc2)CC12CCN(CC1CC1)C2 (configuration not stated) , tested on Proteasome subunit beta (Trypanosoma cruzi) (UniProt O96673).
12.1

# get_value(readout= Percent Effect, system= Proteasome subunit beta (Trypanosoma cruzi) (UniProt O96673)) for COc1ccc(C(=O)N2C[C@@H](CN3CCOCC3)[C@@H](CO)C2)c(C)c1
1.71

Checklist item: Percent Effect tested on Proteasome subunit beta (Trypanosoma cruzi) (UniProt O96673), entry CCCC(C)C(=O)NCc1cn2cc(Br)ccc2n1 (configuration not stated) , value?
9.68

Item CN1CCN(c2cc(CNC(=O)c3ccc(=O)[nH]n3)ccn2)CC1 with Proteasome subunit beta (Trypanosoma cruzi) (UniProt O96673) - Percent Effect?
9.81

Give Proteasome subunit beta (Trypanosoma cruzi) (UniProt O96673) Percent Effect for COc1cc(CNCc2c(C)nn(C)c2N(C)C)ccc1C
3.06

Request - read-out Percent Effect | tested on Proteasome subunit beta (Trypanosoma cruzi) (UniProt O96673) | compound CSc1ccc(Cl)c(C(=O)N2CCCC(CNS(C)(=O)=O)C2)c1 (configuration not stated)
18.2

Form field - read-out: Percent Effect; system: Proteasome subunit beta (Trypanosoma cruzi) (UniProt O96673); submitted item: O=C(c1cc(C2CC2)[nH]n1)N1CCN(Cc2ccsc2)CC1
14

Query Percent Effect on Proteasome subunit beta (Trypanosoma cruzi) (UniProt O96673) for CNC(=O)Cn1cc(C#N)c(=O)c2cc(Br)ccc21
15.2

Param readout = Percent Effect; param system = Proteasome subunit beta (Trypanosoma cruzi) (UniProt O96673); param query = CC(C)c1nn(C)c(N2CCOCC2)c1CNCCS(C)(=O)=O ; response: value
-0.427
